Target: Proto-oncogene tyrosine-protein kinase Src (Gallus gallus)
Test: Inhibition of p60 c-Src tyrosine kinase mediated phosphorylation of Fak in IC8.1 fibroblasts
Type: functional
# reported pIC50; entries follow
Scale for pIC50: -log10 of concentration given in mol/L; no unit attached.

Examples with answers:
compound: Nc1ncnc2c1c(-c1ccccc1)cn2C1CCCC1
pIC50: 5.74
--
compound: Nc1ncnc2c1c(-c1ccccc1)cn2C1CC(O)C1 (configuration not stated)
pIC50: 5.40

Give me measured pIC50, please, for this compound: COc1cccc(-c2cn(C3CCCC3)c3ncnc(N)c23)c1
6.77

* * *

In what follows, each item is paired with its IC50 for Epidermal growth factor receptor (Homo sapiens, UniProt P00533).
Please respond with the number in nM and leave the unit unwritten.

molecule: COc1cccc(-c2cn(C3CC(C(=O)NCCO)C3)c3ncnc(N)c23)c1 (stereo unspecified)
system-tested: Epidermal growth factor receptor (Homo sapiens, UniProt P00533)
Sequence (P00533 whole entry): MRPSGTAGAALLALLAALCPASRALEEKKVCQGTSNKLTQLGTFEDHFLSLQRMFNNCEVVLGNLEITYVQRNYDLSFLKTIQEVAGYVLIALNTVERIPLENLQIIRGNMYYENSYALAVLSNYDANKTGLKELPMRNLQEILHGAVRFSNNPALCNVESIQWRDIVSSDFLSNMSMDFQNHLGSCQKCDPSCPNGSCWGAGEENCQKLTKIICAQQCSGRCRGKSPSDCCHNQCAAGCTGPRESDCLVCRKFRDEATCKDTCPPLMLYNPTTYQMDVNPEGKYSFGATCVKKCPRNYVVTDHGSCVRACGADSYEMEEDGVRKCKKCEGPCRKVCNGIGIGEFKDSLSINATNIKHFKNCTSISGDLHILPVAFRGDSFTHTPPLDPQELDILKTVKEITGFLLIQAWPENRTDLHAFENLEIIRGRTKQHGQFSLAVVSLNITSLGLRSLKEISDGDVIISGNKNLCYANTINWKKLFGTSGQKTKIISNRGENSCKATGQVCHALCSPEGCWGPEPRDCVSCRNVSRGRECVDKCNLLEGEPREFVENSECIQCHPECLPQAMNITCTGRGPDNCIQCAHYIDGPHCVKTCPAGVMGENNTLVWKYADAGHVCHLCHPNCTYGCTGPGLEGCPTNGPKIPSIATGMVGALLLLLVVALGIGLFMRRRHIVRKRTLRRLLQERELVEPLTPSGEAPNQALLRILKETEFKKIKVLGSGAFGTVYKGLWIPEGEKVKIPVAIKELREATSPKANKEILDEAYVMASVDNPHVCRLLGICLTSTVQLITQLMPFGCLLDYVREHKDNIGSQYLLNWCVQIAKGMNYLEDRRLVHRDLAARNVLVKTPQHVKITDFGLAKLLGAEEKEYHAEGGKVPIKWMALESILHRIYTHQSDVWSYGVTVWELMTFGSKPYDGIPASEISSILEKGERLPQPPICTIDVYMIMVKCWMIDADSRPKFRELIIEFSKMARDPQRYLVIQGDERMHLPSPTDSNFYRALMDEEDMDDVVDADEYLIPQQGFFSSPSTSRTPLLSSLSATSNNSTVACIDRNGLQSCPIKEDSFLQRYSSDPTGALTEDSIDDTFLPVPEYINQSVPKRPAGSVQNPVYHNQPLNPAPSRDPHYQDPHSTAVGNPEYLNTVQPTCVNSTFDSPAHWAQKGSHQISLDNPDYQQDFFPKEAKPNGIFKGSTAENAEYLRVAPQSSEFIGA
value-unit: nM
IC50: 330
//
molecule: Nc1ncnc2c1c(-c1ccccc1)cn2C1CC(O)C1 (stereo unspecified)
system-tested: Epidermal growth factor receptor (Homo sapiens, UniProt P00533)
value-unit: nM
IC50: 2820
//
molecule: Nc1ncnc2c1c(-c1cccc(O)c1)cn2C1CCCC1
system-tested: Epidermal growth factor receptor (Homo sapiens, UniProt P00533)
value-unit: nM
IC50: 80
//
molecule: COc1ccc(CC(CO)n2cc(-c3cccc(O)c3)c3c(N)ncnc32)cc1 (stereo unspecified)
system-tested: Epidermal growth factor receptor (Homo sapiens, UniProt P00533)
value-unit: nM
IC50: 3400
//
molecule: COc1cccc(-c2cn(C3CCCC3)c3ncnc(N)c23)c1
system-tested: Epidermal growth factor receptor (Homo sapiens, UniProt P00533)
value-unit: nM
IC50: 460

Next molecule, please.
# lookup: Epidermal growth factor receptor (Homo sapiens, UniProt P00533) IC50, key = Nc1ncnc2c1c(-c1cccc(O)c1)cn2C1CCC1
300

* * *

Target: Tyrosine-protein kinase ABL (Homo sapiens, UniProt P00519+P42684)
IC50 under 200 nM gets t, anything at or over 200 nM gets f.

The examples below pair each entry with its known result.
molecule: COc1cccc(-c2cn(C3CCC3)c3ncnc(N)c23)c1
qualitative-label: t
--
molecule: Nc1ncnc2c1c(-c1ccccc1)cn2C(CO)Cc1ccccc1 (centres undefined)
qualitative-label: f
--
molecule: COc1ccc(-c2cn(C3CCCC3)c3ncnc(N)c23)cc1
qualitative-label: f
--
molecule: Nc1ncnc2c1c(-c1ccccc1)cn2C(CO)Cc1ccc(O)cc1 (centres undefined)
qualitative-label: f
--
molecule: Nc1ncnc2c1c(-c1ccccc1)cn2C1CCC(O)C1 (centres undefined)
qualitative-label: t

Does COc1cccc(-c2cn(C3CCCC3)c3ncnc(N)c23)c1 have IC50 strictly under 200 nM?
t

Does COc1ccc(CC(CO)n2cc(-c3ccccc3)c3c(N)ncnc32)cc1 (centres undefined) have IC50 strictly under 200 nM?
f

Does COc1cccc(-c2cn(C3CC(CNCCO)C3)c3ncnc(N)c23)c1 (centres undefined) have IC50 strictly under 200 nM?
f

Does COc1cccc(-c2cn(C3CC(CO)C3)c3ncnc(N)c23)c1 (centres undefined) have IC50 strictly under 200 nM?
t

* * *

Biological target: Proto-oncogene tyrosine-protein kinase Src (Gallus gallus, UniProt P00523)
Assay: Inhibition of p60 c-Src tyrosine kinase mediated phosphorylation of Fak in IC8.1 fibroblasts
Format: functional
measured-attribute: pIC50
Scale for pIC50: -log10 of concentration given in mol/L; no unit attached.

# lookup: Proto-oncogene tyrosine-protein kinase Src (Gallus gallus, UniProt P00523) pIC50, key = Nc1ncnc2c1c(-c1cccc(O)c1)cn2C1CCCC1
6.70

# lookup: Proto-oncogene tyrosine-protein kinase Src (Gallus gallus, UniProt P00523) pIC50, key = Nc1ncnc2c1c(-c1ccccc1)cn2C1CCC1
6.00

# lookup: Proto-oncogene tyrosine-protein kinase Src (Gallus gallus, UniProt P00523) pIC50, key = COc1cccc(-c2cn(C3CC(CO)C3)c3ncnc(N)c23)c1 (centres undefined)
5.70

# lookup: Proto-oncogene tyrosine-protein kinase Src (Gallus gallus, UniProt P00523) pIC50, key = COc1ccc(-c2cn(C3CCC3)c3ncnc(N)c23)cc1
5.52

# lookup: Proto-oncogene tyrosine-protein kinase Src (Gallus gallus, UniProt P00523) pIC50, key = Nc1ncnc2c1c(-c1ccccc1)cn2C1CCC(O)C1 (centres undefined)
6.70

# lookup: Proto-oncogene tyrosine-protein kinase Src (Gallus gallus, UniProt P00523) pIC50, key = Nc1ncnc2c1c(-c1cccc(O)c1)cn2C1CCC1
7.00

# lookup: Proto-oncogene tyrosine-protein kinase Src (Gallus gallus, UniProt P00523) pIC50, key = COc1ccc(-c2cn(C3CCCC3)c3ncnc(N)c23)cc1
5.92
